# system.under.test: PAK1 (Homo sapiens, UniProt Q13153)
# Sequence (Q13153 whole entry): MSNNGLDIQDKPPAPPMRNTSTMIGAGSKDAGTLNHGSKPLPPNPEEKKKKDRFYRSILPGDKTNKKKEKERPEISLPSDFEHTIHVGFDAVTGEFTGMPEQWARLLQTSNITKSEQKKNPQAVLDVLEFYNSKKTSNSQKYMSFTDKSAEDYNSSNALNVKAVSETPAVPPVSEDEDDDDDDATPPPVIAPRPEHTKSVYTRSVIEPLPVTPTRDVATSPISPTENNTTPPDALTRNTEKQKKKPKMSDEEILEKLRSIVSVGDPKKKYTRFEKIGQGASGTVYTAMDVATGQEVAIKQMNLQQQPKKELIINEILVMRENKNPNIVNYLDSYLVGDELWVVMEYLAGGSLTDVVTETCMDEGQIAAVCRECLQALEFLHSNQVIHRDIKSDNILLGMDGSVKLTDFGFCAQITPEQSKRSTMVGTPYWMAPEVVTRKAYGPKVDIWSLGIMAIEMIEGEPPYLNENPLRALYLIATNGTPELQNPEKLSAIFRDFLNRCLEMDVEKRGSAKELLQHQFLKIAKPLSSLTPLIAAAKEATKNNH
# experiment.description: Additional in vitro PAK1 inhibition assay at ATP 10 uM and 1 mM
# Type: biochemical
# test.settings: 1 mM ATP; read-out: PAK1 IC50 (1 mM ATP)
pIC50: −log10 of the molar value.
Listed below: pIC50 values for each entry.

Consider the following illustrative entries.
compound	pIC50
Cc1nc(-c2ccc(-c3cc4cnc(NC5CCOCC5)nc4n(Cc4cccc(CN)c4)c3=O)c(Cl)c2)no1 [drawing 342]	6.30 to 7.30
CCn1c(=O)c(-c2ccc(-c3noc(C)n3)cc2Cl)cc2cnc(NC3CCOC(C)(C)C3)nc21 (centres unmarked)	≤ 5.30
CCn1c(=O)c(-c2ccc(-c3noc(C)n3)cc2Cl)cc2cnc(N[C@@H]3C[C@H]3C)nc21	> 7.30
CCn1c(=O)c(-c2ccc(-c3noc(C)n3)cc2Cl)cc2cnc(NCCCNC(C)=O)nc21	≤ 5.30
Cc1nc(-c2ccc(-c3cc4cnc(NC5CCOCC5)nc4n(CC4CCNCC4)c3=O)c(Cl)c2)no1 [drawing 340]	5.30 to 6.30
CCn1c(=O)c(-c2ccc(-c3noc(C)n3)cc2Cl)cc2cnc(NCC(C)(C)O)nc21	≤ 5.30
CCn1c(=O)c(-c2ccc(-c3noc(C)n3)cc2Cl)cc2cnc(NCc3ccccn3)nc21	≤ 5.30

What value of pIC50 on PAK1 (Homo sapiens, UniProt Q13153) does CCCCn1c(=O)c(-c2ccc(-c3noc(C)n3)cc2Cl)cc2cnc(NC3CCOCC3)nc21 have? ≤ 5.30
